System: Daudi cells
MEASUREMENT NOTES: CellTiter-Glow cell viability, lymphoma Daudi
Assay type: cell-based
CONDITION PARAMETERS: Homo sapiens, 72 h, read-out: % Inh @2 μM Daudi
ASSAY READOUT: inhibition at 2 µM (%)
I only need the number, in %, no unit after it.

These recorded examples may help you get a feel for the data.
>  <MOLECULE SMILES>
COc1c(O)ccc2c(=O)c(O)c(-c3ccc(N(C)CCCCNCCCN)cc3)oc12

>  <SYSTEM>
Daudi cells

>  <inhibition at 2 µM [%]>
82

$$$$
>  <MOLECULE SMILES>
COc1c(O)ccc2c(=O)c(O)c(-c3ccc(N(C)CCCCN(C)CCCN4CCCCC4)cc3)oc12

>  <SYSTEM>
Daudi cells

>  <inhibition at 2 µM [%]>
57.4

$$$$
>  <MOLECULE SMILES>
COc1c(O)ccc2c(=O)c(O)c(-c3ccc(N(C)CCCCN(C)CCC4CCN(Cc5ccccc5)CC4)cc3)oc12

>  <SYSTEM>
Daudi cells

>  <inhibition at 2 µM [%]>
59.4

$$$$

Query molecule follows.
Give the value of inhibition at 2 µM reported for the following: "COc1c(O)ccc2c(=O)c(O)c(-c3ccc(N(C)CCCCN(C)CCN4CCN(Cc5ccccc5)CC4)cc3)oc12"
50

All figures here come from patent US20240051930A1.
